# target-desc: high affinity nicotinic receptors
# test-context: read-out: Ki (nM), inhibition of L-[3H]nicotine binding; mouse brain membranes (cerebellum removed), 10 nM L-[3H]nicotine, 2 hr at 4° C.; Ki calculated from IC50 by the method of Cheng et al.
measurement-type: Ki (nM)
Number in nM, nothing else.

Problem: Could you share what Ki was measured for CN1CCC[C@@H]1c1cccnc1 [(R)-(+)-nicotine] , tested on high affinity nicotinic receptors?
Solution: 113
